Target: T1, human myostatin (human, UniProt O14793 267-375, biotinylated in selections and radioactive assays (site not stated))
T1 construct: Phage ELISA used both unbiotinylated and biotinylated myostatin; also called biotinylated human myostatin; myostatin-biotin
T1 sequence (looked up): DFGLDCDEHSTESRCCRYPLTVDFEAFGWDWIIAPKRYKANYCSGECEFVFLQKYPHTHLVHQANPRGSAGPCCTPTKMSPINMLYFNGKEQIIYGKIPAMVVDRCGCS
Test: radioactive equilibrium binding assay
Catalogue of B max values

>  <binder>
39973-B12 (designed binder, group M3-A) MTIPEIIIKVRGTQVVGSDMTVIVEFKHDRYRYLQQVWVHLDGPGVTRPMKKMFKLIIFSYPVQWEEVVRPWVSGHRKLIASMRFMCPSHVYGELDVQIQRRDYKDDDDK

>  <B max, %>
7.77

$$$$
>  <binder>
39908-D2 (designed binder, group M3-A50; ΔS82, M83R; also called M29 (clone ID)) MTIPEIIIKVRGTQVVGSDMTVIVEFTNPFKETLRSVWVHLDGPGVTRPMKKMFREIPPKTTVQWEEVVRPWVSGHRKLIARCSLSPWHVYGELDVQIQRRDYKDDDDK

>  <B max, %>
68.8

$$$$
>  <binder>
39633-H6 (M50V) (designed binder, group M2-A50; M50V) MTIPEIIIKVRGTQVVGSDMTVIVEFTNPFKETLRSVWVHLDGPGVTRPVKKMFREIPPKTTVQWEEVVRPWVSGHRKLIASMPSLLHLHVYGELDVQIQRRDYKDDDDK

>  <B max, %>
61.6

$$$$
>  <binder>
39908-G4 (designed binder, group M2-A50; also called M7 (clone ID)) MTIPEIIIKVRGTQVVGSDMTVIVEFSNPFKETLRNVWVHLDGPGVTRPMKKMFSEIRPNSTVQWEEVVRPWVSGHRKLIASMPSLLHLHVYGELDVQIQRRDYKDDDDK

>  <B max, %>
49

$$$$
>  <binder>
39908-F5 (designed binder, group M3-A50; ΔS82, M83R; also called M16 (clone ID)) MTIPEIIIKVRGTQVVGSDMTVIVEFTNPFKETLRNVWVHLDGPGVTRPMKKMFCEIRPNSIVQWEEVVRPWVSGHRKLIARCQLLPWHVYGELDVQIQRRDYKDDDDK

>  <B max, %>
67.2

$$$$
>  <binder>
39885-C7 (designed binder, group M1-A; also called M3-1 (clone ID)) MTIPEIIIKVRGTQVVGSDMTVIVEFTNPLKETLRNVWVHLDGPGVTRPMKKMFRAIPMNHKVQWEEVVRPWVSGHRKLIASMPQLFHIHVYGELDVQIQRRDYKDDDDK

>  <B max, %>
68.4

$$$$

Entry source: patent US20110059504A1
